Test system: Caupolican (Caup) homeodomain DNA-binding domain
Sequence: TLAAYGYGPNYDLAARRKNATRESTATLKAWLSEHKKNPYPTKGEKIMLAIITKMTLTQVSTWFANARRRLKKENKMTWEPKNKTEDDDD
Test: PBM E-score (8-mer, recovered from the published 9-mer minima) (E-score (dimensionless, -0.5 to 0.5)); higher = stronger relative binding preference, active = 0.31 or more
Shown is part of a subset that was picked to be rich in hits. The true hit rate is not given.
# PBM E-score per record follows

Worked cases, answers included:
CTGTTACA	0.33 (active)
CCTGTCAC	0.144 (inactive)
ATTAACTC	0.0863 (inactive)
CGTGTCAG	0.276 (inactive)

Below: the item to evaluate.
Task: Consider the sequence shown here: `ACATTACT` What is its recorded PBM E-score?
Output: 0.227 (inactive)

====

System: Caupolican (Caup) homeodomain DNA-binding domain
Sequence: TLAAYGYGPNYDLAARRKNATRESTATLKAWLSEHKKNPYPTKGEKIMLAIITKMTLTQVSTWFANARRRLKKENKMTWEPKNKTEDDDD
Assay: PBM E-score (8-mer, recovered from the published 9-mer minima) (E-score (dimensionless, -0.5 to 0.5)); higher = stronger relative binding preference, active = 0.31 or more
Only a selection was taken, and hits are over-represented in it overall. The hit rate among all sequences tested is not known here.
Outcome field: choose from label 1 (active), label 0 (inactive)

Here are 4 sequences together with their reported answers.
GTCCCTAA	label 0
TACACGGA	label 1
TCCATGGA	label 0
ACCATGGC	label 0

Task: What outcome does the record of this test show for `GACACGTA` ?
Output: label 1

Task: What outcome does the record of this test show for `AACATTGA` ?
Output: label 0

====

System: Caupolican (Caup) homeodomain DNA-binding domain
Sequence: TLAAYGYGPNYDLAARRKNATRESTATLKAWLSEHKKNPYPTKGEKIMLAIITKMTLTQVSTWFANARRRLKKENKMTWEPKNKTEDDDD
Test: PBM E-score (8-mer, recovered from the published 9-mer minima) (E-score (dimensionless, -0.5 to 0.5)); higher = stronger relative binding preference, active = 0.31 or more
This is one part of a sample in which hits are shown more often than they occur. No count for the full screen is at hand.
Outcome field: choose from yes (1) = active, no (0) = inactive

CGTATCAA	no (0)
ATGTCGTA	yes (1)
CGTTAAGC	no (0)

Field: next sequence
Task: What outcome does the record of this test show for `ACTTGACC` ?
Output: no (0)

====

Test system: Caupolican (Caup) homeodomain DNA-binding domain
Sequence: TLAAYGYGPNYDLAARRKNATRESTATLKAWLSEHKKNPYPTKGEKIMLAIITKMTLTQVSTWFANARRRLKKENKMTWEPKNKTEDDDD
Assay: PBM E-score (8-mer, recovered from the published 9-mer minima) (E-score (dimensionless, -0.5 to 0.5)); Drosophila protein; higher = stronger relative binding preference, active = 0.31 or more
This is one part of a sample in which hits are shown more often than they occur. How many sequences the whole screen found active is unknown.
Outcome field: choose from Yes (active), No (inactive)

Here are 6 sequences together with their reported answers.
ATTGTAAA	No
AACGAGGA	No
GATCTACA	No
GCCATGCC	No
GACCTCTA	No
GCAGTCCC	No

Task: What outcome does the record of this test show for `ATCAAAGC` ?
Output: No

Task: What outcome does the record of this test show for `CGGGCTTC` ?
Output: No

Task: What outcome does the record of this test show for `GGGTCTGA` ?
Output: No

Task: What outcome does the record of this test show for `GTGTGAAC` ?
Output: No

Task: What outcome does the record of this test show for `GACATGCC` ?
Output: Yes
